Every entry's value here was drawn from ChEMBL document CHEMBL1136110.

Biological target: 5-hydroxytryptamine receptor 2A (Homo sapiens)
Sequence (P28223 whole entry): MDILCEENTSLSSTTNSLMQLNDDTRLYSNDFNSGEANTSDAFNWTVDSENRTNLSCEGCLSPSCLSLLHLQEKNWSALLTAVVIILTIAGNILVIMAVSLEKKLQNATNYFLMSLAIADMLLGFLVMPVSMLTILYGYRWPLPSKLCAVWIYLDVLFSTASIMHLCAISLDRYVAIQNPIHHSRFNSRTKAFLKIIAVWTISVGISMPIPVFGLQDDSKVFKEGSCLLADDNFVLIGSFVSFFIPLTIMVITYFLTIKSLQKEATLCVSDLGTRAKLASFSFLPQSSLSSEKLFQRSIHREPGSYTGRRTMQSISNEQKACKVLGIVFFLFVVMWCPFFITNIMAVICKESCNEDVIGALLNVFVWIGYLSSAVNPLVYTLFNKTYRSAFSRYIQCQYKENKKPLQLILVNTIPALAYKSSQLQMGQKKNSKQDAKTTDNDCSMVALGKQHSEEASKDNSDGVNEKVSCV
pKi: −log10 of the molar value.
Rule: Satisfied for pKi not less than 7, Not satisfied for anything less.

Is it the case that `O=C(c1c2n(c3ccccc13)CCNCC2)C(F)(F)F` has pKi reaching or exceeding 7?
Satisfied

Is it the case that CCOc1ccccc1-c1cccc2c1N1CCNCCC1C2 (stereo in doubt; 20a) has pKi reaching or exceeding 7?
Not satisfied

Is it the case that CCOc1ccc(-c2cc(Cl)cc3c2N2CCNCCC2C3)cc1 (stereo unspecified) has pKi reaching or exceeding 7?
Not satisfied

Is it the case that `NC(=O)c1c2n(c3ccccc13)CCNCC2` has pKi reaching or exceeding 7?
Satisfied

Is it the case that `O=Cc1c2n(c3ccccc13)CCNCC2` has pKi reaching or exceeding 7?
Satisfied

Is it the case that CCOc1ccccc1-c1cc(Cl)cc2c1N1CCNCCC1C2 (stereo in doubt) has pKi reaching or exceeding 7?
Not satisfied

Is it the case that CCOc1ccccc1-c1cccc2c1N1CCNCCC1C2 (single isomer, unassigned; (-)) has pKi reaching or exceeding 7?
Not satisfied

Is it the case that `c1cc2c3c(c1)c1c(n3CCO2)CCNCC1` has pKi reaching or exceeding 7?
Satisfied
